Assay: LogD by HPLC capacity factor
Format: physicochemical
Conditions: RP-HPLC, Vydac diphenyl column (capacity factor k')
Where a SMILES comes first, the peptide text is derived from it. [ ]: non-standard residue; d: D form. The star is where a group is joined. NMeW = CN[C@@H](Cc1c[nH]c2ccccc12)C(=O)O; Palmitoyl = CCCCCCCCCCCCCCCC(=O)*
Exercise: for every item that follows, state its recorded chromatographic logD.
I'd appreciate a reply containing only the number, no unit.

Which value of chromatographic logD has been reported for CCCCCCCCCCCCCCCC(=O)NCCCC[C@H](NC(=O)[C@H](CCCCN)NC(=O)[C@H](CCCCN)NC(=O)[C@@H]1CCCN1C(=O)CNC(=O)[C@H](CC(C)C)NC(=O)[C@H](CC(C)C)NC(=O)[C@H](Cc1ccc(O)cc1)NC(=O)CNC(=O)[C@H](C)NC(=O)[C@H](CO)NC(=O)[C@H](CC(N)=O)NC(=O)[C@H](CC(C)C)NC(=O)[C@@H](NC(=O)[C@H](Cc1c[nH]c2ccccc12)NC)[C@@H](C)O)C(=O)N[C@@H](CCCCN)C(N)=O [[N-Me, des-Sar]Gal-B2] (H-[NMeW]TLNSAGYLLGPKKK(Palmitoyl)K-NH2) in the records? 1.29

Likewise for CCCCCCCCCCCCCCCC(=O)NCCCC[C@H](NC(=O)[C@H](CCCCN)NC(=O)[C@H](CCCCN)NC(=O)[C@@H]1CCCN1C(=O)CNC(=O)[C@H](CC(C)C)NC(=O)[C@H](CC(C)C)NC(=O)[C@H](Cc1ccc(O)cc1)NC(=O)CNC(=O)[C@H](C)NC(=O)[C@H](CO)NC(=O)[C@H](CC(N)=O)NC(=O)[C@H](CC(C)C)NC(=O)[C@@H](NC(=O)[C@H](Cc1c[nH]c2ccccc12)NC(C)=O)[C@@H](C)O)C(=O)N[C@@H](CCCCN)C(N)=O [[N-Ac, des-Sar]Gal-B2] (Ac-WTLNSAGYLLGPKKK(Palmitoyl)K-NH2) ? 1.28

Continue with CCCCCCCCCCCCCCCC(=O)NCCCC[C@H](NC(=O)[C@H](CCCCN)NC(=O)[C@H](CCCCN)NC(=O)[C@@H]1CCCN1C(=O)CNC(=O)[C@H](CC(C)C)NC(=O)[C@H](CC(C)C)NC(=O)[C@H](Cc1ccc(O)cc1)NC(=O)CNC(=O)[C@H](C)NC(=O)[C@H](CO)NC(=O)[C@H](CC(N)=O)NC(=O)[C@H](CC(C)C)NC(=O)[C@@H](NC(=O)[C@H](Cc1c[nH]c2ccccc12)NC(=O)[C@H](C)N)[C@@H](C)O)C(=O)N[C@@H](CCCCN)C(N)=O [[Sar1Ala]Gal-B2] (H-AWTLNSAGYLLGPKKK(Palmitoyl)K-NH2) 1.28

Also, CCCCCCCCCCCCCCCC(=O)NCCCC[C@H](NC(=O)[C@H](CCCCN)NC(=O)[C@H](CCCCN)NC(=O)[C@@H]1CCCN1C(=O)CNC(=O)[C@H](CC(C)C)NC(=O)[C@H](CC(C)C)NC(=O)[C@H](Cc1ccc(O)cc1)NC(=O)CNC(=O)[C@H](C)NC(=O)[C@H](CO)NC(=O)[C@H](CC(N)=O)NC(=O)[C@H](CC(C)C)NC(=O)[C@@H](NC(=O)[C@@H](N)Cc1c[nH]c2ccccc12)[C@@H](C)O)C(=O)N[C@@H](CCCCN)C(N)=O [Gal-B5] (H-WTLNSAGYLLGPKKK(Palmitoyl)K-NH2) please. 1.22

Repeat for the following compound: CCCCCCCCCCCCCCCC(=O)NCCCC[C@H](NC(=O)[C@H](CCCCN)NC(=O)[C@H](CCCCN)NC(=O)[C@@H]1CCCN1C(=O)CNC(=O)[C@H](CC(C)C)NC(=O)[C@H](CC(C)C)NC(=O)[C@H](Cc1ccc(O)cc1)NC(=O)CNC(=O)[C@H](C)NC(=O)[C@H](CO)NC(=O)[C@H](CC(N)=O)NC(=O)[C@H](CC(C)C)NC(=O)[C@@H](NC(=O)[C@H](Cc1c[nH]c2ccccc12)NC(=O)CN)[C@@H](C)O)C(=O)N[C@@H](CCCCN)C(N)=O [[Sar1Gly]Gal-B2] 1.3

All figures here come from paper PMC2846716.
